Cited source: patent US8183380B2

- MEASURED ON: recombinant human 5-HT5A receptor (Homo sapiens, UniProt P47898)
- Construct: expressed in transfected cells; host or cells: HEK-EBNA (Human Embryonic Kidney-EBNA) cells, transient cDNA expression; membranes
- Sequence (P47898 whole entry): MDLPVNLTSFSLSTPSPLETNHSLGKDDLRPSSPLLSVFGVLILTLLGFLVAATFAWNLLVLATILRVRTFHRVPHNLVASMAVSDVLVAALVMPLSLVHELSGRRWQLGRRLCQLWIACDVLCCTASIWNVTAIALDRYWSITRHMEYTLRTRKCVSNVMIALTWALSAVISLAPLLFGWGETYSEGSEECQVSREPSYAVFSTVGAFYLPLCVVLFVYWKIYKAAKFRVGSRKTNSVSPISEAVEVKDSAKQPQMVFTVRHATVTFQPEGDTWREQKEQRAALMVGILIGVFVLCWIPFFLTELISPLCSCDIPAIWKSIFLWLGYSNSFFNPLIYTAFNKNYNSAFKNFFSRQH
- EXPERIMENTAL DETAILS: [3H]LSD radioligand binding assay
- EXPERIMENTAL CONDITIONS: [3H]LSD (approximately 1 nM); membranes from transiently expressed 5-HT5A receptors in HEK-EBNA cells; Ki from IC50 by Cheng-Prussoff equation
Where a name gives a salt, the structure may show the parent alone.
ASSAY READOUT: Ki (nM)

Here's what some known entries look like.
                                   compound  assay_readout  assay_value
0  CC(C)N1[C@@H]2CC[C@H]1C[C@H](NC(=O)Nc1ccc3nc(N[C@@H]4CCc5ccccc54)ccc3c1)C2             Ki          7.1
1  NC(=O)Nc1ccc2nc(N[C@@H]3CCc4ccccc43)ccc2c1             Ki          2.9
2  NS(=O)(=O)Nc1ccc2nc(N[C@@H]3CCc4ccccc43)ccc2c1 [Example 72, hydrochloride]             Ki          8.4
3  COc1cccc2c1C(Nc1ccc3cc(N)ccc3n1)CC2 (racemic)             Ki          3.3
4  COc1cccc2c1C(Nc1ccc3cc(NC(=O)NC4CCN(C(C)C)CC4)ccc3n1)CC2 (racemic)             Ki            3
5  CN(CCNC(=O)Nc1ccc2nc(N[C@@H]3CCc4ccccc43)ccc2c1)C1CC1             Ki          8.2
6  N#CCN1CCC(NC(=O)Nc2ccc3nc(N[C@@H]4CCc5ccccc54)ccc3c2)CC1             Ki          4.2
7  COc1cccc2c1C(Nc1ccc3cc(NC(=O)NC4CCN(C)CC4)ccc3n1)CCC2 (racemic)             Ki          5.8

A: COCCN1CCC(NC(=O)Nc2ccc3nc(NC4CCCc5cccc(OC)c54)ccc3c2)CC1 (racemic)
B: CNC(=O)Nc1ccc2nc(N[C@@H]3CCc4ccccc43)ccc2c1
Smaller Ki value? Options are A and B Respond using the label that marks the chosen record.
B

----------
In this section we review reported Ki values for a set of compounds.
- MEASURED ON: recombinant human 5-HT5A receptor (Homo sapiens, UniProt P47898)
- Construct: expressed in transfected cells; host or cells: HEK-EBNA (Human Embryonic Kidney-EBNA) cells, transient cDNA expression; membranes
- EXPERIMENTAL DETAILS: [3H]LSD radioligand binding assay
- EXPERIMENTAL CONDITIONS: [3H]LSD (approximately 1 nM); membranes from transiently expressed 5-HT5A receptors in HEK-EBNA cells; Ki from IC50 by Cheng-Prussoff equation
Form entry: value (nM) — number only.

# count of solved cases: 2
>>> print(df.to_string())
                                   compound  unit_of_measurement  assay_value
0  COc1cccc2c1C(Nc1ccc3cc(NC(=O)NC(C)C)ccc3n1)CCC2 (racemic) [Example 15]                   nM          7.7
1  O=C(Nc1ccc2nc(N[C@@H]3CCc4ccccc43)ccc2c1)N[C@@H]1C[C@H]2CCC[C@@H](C1)N2C1CC1 [Example 110]                   nM          7.2

// below: Ki requested for another compound
Lab note: COc1cccc2c1C(Nc1ccc3cc(NC(=O)N(C)[C@@H]4C[C@H]5CC[C@@H](C4)N5C(C)C)ccc3n1)CC2 (mixture of isomers) [Example 188] gave Ki of 8.5

----------
- MEASURED ON: recombinant human 5-HT5A receptor (Homo sapiens, UniProt P47898)
- Construct: expressed in transfected cells; host or cells: HEK-EBNA (Human Embryonic Kidney-EBNA) cells, transient cDNA expression; membranes
- EXPERIMENTAL DETAILS: [3H]LSD radioligand binding assay
- EXPERIMENTAL CONDITIONS: [3H]LSD (approximately 1 nM); membranes from transiently expressed 5-HT5A receptors in HEK-EBNA cells; Ki from IC50 by Cheng-Prussoff equation
ASSAY READOUT: Ki (nM)

Here are 5 compounds together with their reported answers.
>>> print(df.to_string())
                                   compound  assay_value
0  CC(C)OC(=O)Nc1ccc2nc(N[C@@H]3CCc4ccccc43)ccc2c1 [Example 138]            8
1  CN1CCC(NC(=O)Nc2ccc3nc(NC4COc5ccccc54)ccc3c2)CC1 (racemic) [Example 35]          9.6
2  COc1cc(C)cc2c1C(Nc1ccc3cc(NC(=O)NC4CCN(C)CC4)ccc3n1)CC2 (racemic) [Example 131]          2.9
3  O=S(=O)(Nc1ccc2nc(N[C@@H]3CCc4ccccc43)ccc2c1)N1CCSCC1 [Example 78]            7
4  O=C(Nc1ccc2nc(N[C@@H]3CCc4ccccc43)ccc2c1)N[C@@H]1C[C@H]2CC[C@@H](C1)N2C1CC1 [Example 99]          3.9

I: COc1cccc2c1C(Nc1ccc3cc(NC(=O)N(C)C4CCN(CCO)CC4)ccc3n1)CC2 (racemic) [Example 206]
II: CC(C)NC(=O)Nc1ccc2nc(N[C@@H]3CCc4ccccc43)ccc2c1 [Example 3]
Lower Ki: I or II ? I would appreciate it if you answered with the label of your choice.
II
